Protocol Text: Clearance in iv dosed Beagle dog blood after 24 hrs by LC-MS analysis
Type: ADME, organism-based, Canis lupus familiaris
Setup Conditions: whole blood
Entries and their clearance
Quote the value and follow it with the unit of measurement.

Look up clearance: COC(=O)Nc1c(N)nc(-n2nc(Cc3ccccc3F)c3ncc(F)cc32)nc1N
0.2 L/h/kg

Turning to the following compound.
Look up clearance: COC(=O)Nc1c(N)nc(-c2nn(Cc3ccccc3F)c3ncc(F)cc23)nc1N [VERICIGUAT]
0.2 L/h/kg

###

Target Or Test System: Cytochrome P450 2A6 (Homo sapiens, UniProt P11509)
Sequence (P11509 whole entry): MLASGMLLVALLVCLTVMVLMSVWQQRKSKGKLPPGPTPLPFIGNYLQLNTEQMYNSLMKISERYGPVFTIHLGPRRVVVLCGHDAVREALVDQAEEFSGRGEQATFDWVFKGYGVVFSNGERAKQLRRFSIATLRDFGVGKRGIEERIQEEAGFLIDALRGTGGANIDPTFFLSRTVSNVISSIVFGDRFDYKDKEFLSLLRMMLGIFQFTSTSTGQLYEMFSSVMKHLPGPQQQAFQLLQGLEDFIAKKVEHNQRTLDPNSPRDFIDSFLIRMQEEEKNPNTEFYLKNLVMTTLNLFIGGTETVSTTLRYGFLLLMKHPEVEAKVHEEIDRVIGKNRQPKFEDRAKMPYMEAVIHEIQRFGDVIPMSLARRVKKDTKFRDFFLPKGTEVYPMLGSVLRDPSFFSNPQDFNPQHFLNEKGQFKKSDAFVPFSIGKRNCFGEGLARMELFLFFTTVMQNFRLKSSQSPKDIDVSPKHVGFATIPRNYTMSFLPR
pIC50: −log10 of the molar value.
Recorded Endpoint: pIC50

Look up pIC50: COC(=O)Nc1c(N)nc(-c2nn(Cc3ccccc3F)c3ncc(F)cc23)nc1N
< 4.30

###

Entries and their half-life
Protocol Text: Terminal half life in iv dosed Beagle dog blood after 24 hrs by LC-MS analysis
Assay type: ADME, organism-based, Canis lupus familiaris
Setup Conditions: whole blood, read-out: beta t1/2 (converted)
Quote the value and follow it with the unit of measurement.

# annotated cases, reported half-life shown
Look up half-life: COC(=O)Nc1c(N)nc(-c2nc(Cc3ccccc3F)n3ncccc23)nc1N
1.8 h

Look up half-life: COC(=O)Nc1c(N)nc(-c2nn(Cc3ccccc3F)c3ncc(F)cc23)nc1N
6.2 h

Look up half-life: COC(=O)Nc1c(N)nc(-n2nc(Cc3ccccc3F)c3ncc(F)cc32)nc1N
4.1 h

Turning to the following compound.
Look up half-life: COC(=O)N(C)c1c(N)nc(-c2nn(Cc3ccccc3F)c3ncccc23)nc1N
2.4 h

###

Protocol Text: Oral bioavailability in Wistar rat administered via oral gavage after 24 hrs by LC-MS analysis
Format: ADME, organism-based
Setup Conditions: in vivo
Recorded Endpoint: bioavailability
Quote the value and follow it with the unit of measurement.

# annotated cases, reported bioavailability shown
Look up bioavailability: COC(=O)Nc1c(N)nc(-n2nc(Cc3ccccc3F)c3ncc(F)cc32)nc1N
26%

Look up bioavailability: COC(=O)N(C)c1c(N)nc(-c2nn(Cc3ccccc3F)c3ncccc23)nc1N
46%

Continuing:
Look up bioavailability: COC(=O)Nc1c(N)nc(-c2nc(Cc3ccccc3F)n3ncccc23)nc1N
37%

Look up bioavailability: COC(=O)Nc1c(N)nc(-c2nn(Cc3ccccc3F)c3ncc(F)cc23)nc1N
65%

###

Entries and their clearance
Protocol Text: Plasma clearance in iv dosed Beagle dog after 24 hrs by LC-MS analysis
Type: ADME, organism-based, Canis lupus familiaris
Numbers only here, please. The scale is mL/min/kg.

Look up clearance: COC(=O)Nc1c(N)nc(-c2nc(Cc3ccccc3F)n3ncccc23)nc1N
15

Continuing:
Look up clearance: COC(=O)N(C)c1c(N)nc(-c2nn(Cc3ccccc3F)c3ncccc23)nc1N
5

###

Protocol Text: Clearance in iv dosed Wistar rat blood after 24 hrs by LC-MS analysis
Type: ADME, organism-based
Setup Conditions: whole blood
Entries and their clearance
Numbers only here, please. The scale is mL/min/kg.

# annotated cases, reported clearance shown
Look up clearance: COC(=O)Nc1c(N)nc(-c2nn(Cc3ccccc3F)c3ncc(F)cc23)nc1N
5

Look up clearance: COC(=O)Nc1c(N)nc(-c2nn(Cc3ccccc3F)c3nnccc23)nc1N
63.3

Continuing:
Look up clearance: COC(=O)Nc1c(N)nc(-c2nc(Cc3ccccc3F)c3ncccn23)nc1N
30

Look up clearance: COC(=O)Nc1c(N)nc(-c2nc(Cc3ccccc3F)n3ncccc23)nc1N
15

Look up clearance: COC(=O)N(C)c1c(N)nc(-c2nn(Cc3ccccc3F)c3ncccc23)nc1N
21.7

Look up clearance: COC(=O)Nc1c(N)nc(-n2nc(Cc3ccccc3F)c3ncc(F)cc32)nc1N
5

Look up clearance: COC(=O)Nc1c(N)nc(-n2nc(Cc3ccccc3F)c3ncccc32)nc1N
16.7
